assay: Blood and brain collection after forced swim test (total brain-to-plasma ratio); assay type: in vivo; details: CD-1, brain and plasma; 1 mg/kg IP, mouse, immediately following the forced swim test; read-out: total brain-to-plasma ratio (B/P ratio)
assayMetric: Kp at 36 min
Just the number, please, no unit after it.

Requested field: Kp at 36 min. Item: Cc1cc(N2CCc3cc(F)ccc3C2)cc(C)c1NC(=O)CC(C)(C)C
2.2
